Value source: PubChem BioAssay AID588795

# assay-target: Flap endonuclease 1 (Homo sapiens)
# protocol-notes: qHTS Assay for the Inhibitors of Human Flap endonuclease 1 (FEN1). Further: nearly all actives have a fitted effect of over 65% in size.
# recorded-conditions: Recombinant FEN1 flap cleavage, fluorescence, 15 min; series mostly up to 114 µM
In all, about 390,000 compounds went through this assay and about 1,400 (0.36%) were called active. Inconclusive results (about 2%) are left out. The call rests on the fitted dose curve; in most records, active means well fitted inhibition curve with a large enough effect; inconclusive means small, poorly fitted or top-dose-only effect; inactive means no such curve, though single readings can be large or run the other way. The list comes from a sample in which actives are over-represented; it also holds close analogues and randomly drawn compounds.
Possible outcomes: y for active, n for inactive

[
  {
    "compound": "Cc1ccc(S(=O)(=O)N2CCN(c3nc(-n4cnc5ccccc54)nc4ccccc34)CC2)cc1",
    "assay-target": "Flap endonuclease 1 (Homo sapiens)",
    "category": "n"
  },
  {
    "compound": "CN(Cc1ccccc1)c1ccc(/C=C/c2ccnc3ccccc23)cc1",
    "assay-target": "Flap endonuclease 1 (Homo sapiens)",
    "category": "n"
  },
  {
    "compound": "CCN(CC)/[N+]([O-])=N/OCOC(=O)Cc1c(C)n(C(=O)c2ccc(Cl)cc2)c2ccc(OC)cc12",
    "assay-target": "Flap endonuclease 1 (Homo sapiens)",
    "category": "n"
  },
  {
    "compound": "COc1ccc(Nc2cc(C(=O)NCCCN(C)c3ccccc3)c3ccccc3n2)c(OC)c1",
    "assay-target": "Flap endonuclease 1 (Homo sapiens)",
    "category": "n"
  },
  {
    "compound": "Cc1cccc(NC(=O)COC(=O)c2ccccc2OCc2cccc(Br)c2)c1",
    "assay-target": "Flap endonuclease 1 (Homo sapiens)",
    "category": "n"
  },
  {
    "compound": "CN(N=O)c1ccc(C=C2c3ccccc3-c3ccccc32)cc1",
    "assay-target": "Flap endonuclease 1 (Homo sapiens)",
    "category": "n"
  },
  {
    "compound": "Cc1csc[n+]1CCC1CCCCC1",
    "assay-target": "Flap endonuclease 1 (Homo sapiens)",
    "category": "n"
  },
  {
    "compound": "CCC(=C/c1sc2ccc3ccccc3c2[n+]1C)/C=C1\\Sc2ccc3ccccc3c2N1C",
    "assay-target": "Flap endonuclease 1 (Homo sapiens)",
    "category": "y"
  },
  {
    "compound": "CCN1CCN(c2ccc(/C=C/c3ccnc4ccccc34)cc2)CC1",
    "assay-target": "Flap endonuclease 1 (Homo sapiens)",
    "category": "n"
  },
  {
    "compound": "Nc1ccccc1SC(C[N+](=O)[O-])c1ccccc1 (stereo not given)",
    "assay-target": "Flap endonuclease 1 (Homo sapiens)",
    "category": "y"
  }
]
